Just for reference, ChEMBL document CHEMBL1127717 is where these values come from.

Assay: In vitro flocculation inhibitory ability was determined towards Yeast cell wall lectin (KbWCL)
Assay type: functional, Saccharomyces cerevisiae
attributeMeasured: MIC (µM)

[Na+].[O-]CC1OC(SCC2OC3OC4C(CSC5OC(CO)C(O)C(O)C5O)OC(OC5C(CSC6OC(CO)C(O)C(O)C6O)OC(OC6C(CSC7OC(CO)C(O)C(O)C7O)OC(OC7C(CSC8OC(CO)C(O)C(O)C8O)OC(OC8C(CSC9OC(CO)C(O)C(O)C9O)OC(OC9C(CSC%10OC(CO)C(O)C(O)C%10O)OC(OC2C(O)C3O)C(O)C9O)C(O)C8O)C(O)C7O)C(O)C6O)C(O)C5O)C(O)C4O)C(O)C(O)C1O (stereo in doubt; 5) ... 1660

1: O=[N+]([O-])c1ccc(O[C@H]2O[C@H](CO)[C@@H](O)[C@H](O)[C@H]2O)cc1 (stereo in doubt; form 2)
2: O=[N+]([O-])c1ccc(O[C@H]2O[C@H](CO)[C@@H](O)[C@H](O)[C@H]2O)cc1 (stereo in doubt; form 1)
Endpoint returns the identifier whose MIC is numerically larger, either 1 or 2 . Indicate your choice by writing its label.
1
(1: 830 µM, 2: 400 µM)
